test-protocol: Cmax in […] at 1 mg/kg, po and measured upto 24 hrs by LC/MS/MS analysis
Format: ADME, organism-based
Parameters: time < 24 hrs, dose 1 mg/kg, route po
settings: in vivo
metric: Cmax

compound="COc1ccc(C[C@@H](C)[C@@H](C)Cc2ccc(OC)c(OC)c2)cc1OC [TERAMEPROCOL]" result="442 ng/mL"

* * *

test-protocol: Half life in iv dosed human plasma
Format: ADME, organism-based
metric: half-life (h)

molecule="COCCn1c2c([n+](Cc3cnccn3)c1C)C(=O)c1ccccc1C2=O.[Br-] [SEPANTRONIUM BROMIDE]" metric=half-life quantitative_readout=26.3

* * *

Test system: L1210
test-protocol: Antiproliferative activity against mouse L1210 cells assessed as reduction in cell viability incubated for 48 hrs by MTT assay
Assay type: functional, cell-based
settings: L1210, 48 h
metric: IC50

smiles_code=CO[C@]12CC(=O)O[C@]13C(=O)c1c(cc4cc(O)c5c(c4c1O)CN(C)C5=O)C(=O)[C@]3(O[C@H]1CC[C@H](O)[C@H](C)O1)CO2 metric=IC50 result="153 nM"

* * *

System: DU-145
test-protocol: Cytotoxicity against human DU-145 cells assessed as reduction in cell viability by SRB assay
Type: functional, cell-based
metric: IC50 (nM)

molecule="COCCn1c2c([n+](Cc3cnccn3)c1C)C(=O)c1ccccc1C2=O.[Br-] [SEPANTRONIUM BROMIDE]" unit_name=nM quantitative_readout=4

* * *

test-protocol: Half life in CD1 mouse at 1 mg/kg, iv by LC-MS/MS analysis
Type: ADME, organism-based
settings: in vivo
metric: half-life (h)

smiles_code=CC[C@@]1(O)C(=O)OCc2c1cc1n(c2=O)Cc2cc3cc4c(cc3nc2-1)OCO4 metric=half-life unit_name=h quantitative_readout=1.8

* * *

Test system: SK-MEL-5
test-protocol: Antiproliferative activity against human SK-MEL-5 cells assessed as reduction in cell viability
Format: functional, cell-based
metric: IC50 (nM)

molecule="COCCn1c2c([n+](Cc3cnccn3)c1C)C(=O)c1ccccc1C2=O.[Br-] [SEPANTRONIUM BROMIDE]" quantitative_readout=4

* * *

test-protocol: Cmax in […] at 1 mg/kg, iv and measured upto 24 hrs by LC/MS/MS analysis
Assay type: ADME, organism-based
Set-up: time < 24 hrs, dose 1 mg/kg, route iv
settings: in vivo
// reported Cmax for each item listed
metric: Cmax (ng/mL)

molecule="COc1ccc(C[C@@H](C)[C@@H](C)Cc2ccc(OC)c(OC)c2)cc1OC [TERAMEPROCOL]" metric=Cmax unit_name=ng/mL quantitative_readout=1060
molecule=CC[C@@]1(O)C(=O)OCc2c1cc1n(c2=O)Cc2cc3cc4c(cc3nc2-1)OCO4 metric=Cmax unit_name=ng/mL quantitative_readout=43
molecule="COCCn1c2c([n+](Cc3cnccn3)c1C)C(=O)c1ccccc1C2=O.[Br-] [SEPANTRONIUM BROMIDE]" metric=Cmax unit_name=ng/mL quantitative_readout=10.7

* * *

test-protocol: Oral bioavailability in mouse plasma
Type: ADME, organism-based
metric: bioavailability (%)

compound="COc1ccc(C[C@@H](C)[C@@H](C)Cc2ccc(OC)c(OC)c2)cc1OC [TERAMEPROCOL]" quantitative_readout=88.3

* * *

test-protocol: Half life in human plasma after iv dosing
settings: in vivo
metric: half-life (h)

compound="COCCn1c2c([n+](Cc3cnccn3)c1C)C(=O)c1ccccc1C2=O.[Br-] [SEPANTRONIUM BROMIDE]" quantitative_readout=17.2

Entry source: ChEMBL document CHEMBL5375997
